Catalogue of Positive wells/wells tested readings, one per entry.
Tested on: CD8+ T cells
Experiment: In vitro priming of CD8+ T cells with pMHC/anti-CD28 coated beads, tetramer readout
Type: cell-based, human
Settings: healthy donors, CD8+ cells stimulated with high density beads
Where no end group is shown, it is not given here.
State the answer as a number, implicitly in %.

KVFAGIPTV (listed as Homo sapiens) [PTP-005]; 52
LTFGDVVAV (listed as Homo sapiens) [FABP7-001]; 27
GLWHHQTEV (listed as Homo sapiens) [NRCAM-001]; 39
AMTQLLAGV (listed as Homo sapiens) [TNC-001]; 30
AIIDGVESV (listed as Homo sapiens) [PTP-003]; 17
NLDTLMTYV (listed as Homo sapiens) [NLGN4X-001]; 62
ALWAWPSEL (listed as Homo sapiens) [BCA-002]; 35
KIQEILTQV (listed as Homo sapiens) [IGF2BP3-001]; 21
YVDPVITSI [MET-001]; 39

Lab note: next sequence to report on.
Item SLWAGVVVL (listed as Homo sapiens) [CHI-001] : provide Positive wells/wells tested
63
